- Experiment notes: chemical genetic growth profiling, strain panel (AID 1159580);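 note: tested at 20 µM; growth read once vehicle control cultures reached saturation at 30 °C; 1 = growth at the plate median or of vehicle wells; lower values mean less growth of the strain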
- Test parameters: S. cerevisiae deletion strains, growth OD, locus YHR079C, strain IRE1 (second series), hits give low values
About 2,000 (36%) of roughly 5,500 compounds were called active. Inconclusive results (about 18%) are left out. The list shows a part of the results.
Experimental readout: normalized growth

Please review the entries below; each comes with its answer.
CC[C@H]1OC(=O)[C@H](C)[C@@H](O[C@H]2C[C@@](C)(OC)[C@@H](O)[C@H](C)O2)[C@H](C)[C@@H](O[C@@H]2O[C@H](C)C[C@H](N(C)C)[C@H]2O)[C@](C)(O)C[C@@H](C)[C@@H]2N[C@@H](COCCOC)O[C@H]([C@H]2C)[C@]1(C)O    1.01 (inactive)
Cc1onc(-c2ccccc2Cl)c1C(=O)N[C@@H]1C(=O)N2[C@@H]1SC(C)(C)[C@@H]2C(=O)O    1.02 (inactive)
O=C(CCBr)N1CCN(C(=O)CCBr)CC1    0.995 (inactive)

Req: Suppose we examine the molecule OCCN1CCN(CCCN2c3ccccc3Sc3ccc(C(F)(F)F)cc32)CC1 ; what normalized growth value has been reported?
Resp: 0.973 (inactive)

Req: Give its normalized growth value. Item: COc1cc(O)cc(OC)c1OC
Resp: 0.995 (inactive)

Req: Given the molecule O=c1oc2c(O)c(O)cc3c(=O)oc4c(O)c(O)cc1c4c23 , what is its reported normalized growth?
Resp: 0.824 (active)

Req: // lookup normalized growth for CC1(C)S[C@@H]2[C@H](NC(=O)Cc3ccccc3)C(=O)N2[C@H]1C(=O)O
Resp: 1.03 (inactive)

Req: Please report the recorded normalized growth for CC(NCCC(c1ccccc1)c1ccccc1)c1ccccc1 (configuration not stated) .
Resp: 0.99 (inactive)

Req: What measured normalized growth goes with CN1CCN(CCCN2c3ccccc3Sc3ccc(C(F)(F)F)cc32)CC1 ?
Resp: 0.0763 (active)

Req: State the recorded normalized growth for this entry: CC(=O)OCC(=O)[C@@]1(O)CCC2C3CC[C@@H]4C[C@H](OC(C)=O)CC[C@]4(C)C3C(=O)C[C@@]21C (some centres not stated)
Resp: 1.01 (inactive)

Req: Any idea what normalized growth was measured for CC[C@@H](CO)NC(=O)[C@@H]1C=C2c3cccc4[nH]cc(c34)C[C@H]2N(C)C1 ?
Resp: 0.991 (inactive)

Req: Name the recorded normalized growth for CC(=O)O[C@@H]1CC[C@]2(C)C3CC[C@]4(C)C(=O)CCC4C3CC[C@H]2C1 (some centres not stated) .
Resp: 0.987 (inactive)

---

- Experiment notes: chemical genetic growth profiling, strain panel (AID 1159580);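 note: tested at 20 µM; growth read once vehicle control cultures reached saturation at 30 °C; 1 = growth at the plate median or of vehicle wells; lower values mean less growth of the strain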
- Test parameters: S. cerevisiae deletion strains, growth OD, locus YNL250W, strain rad50, hits give low values
The campaign covered roughly 5,500 compounds. About 2,000 (36%) were called active. Inconclusive results (about 18%) are left out. This is one part of the list.
Experimental readout: normalized growth
Respond numerically, and do not add a unit to the figure.

COc1ccc([C@H]2COc3c(ccc(O)c3OC)C2)c(OC)c1O    0.968
COc1ccc(C(=O)c2ccc(O)cc2)c(O)c1O    0.981
COC(=O)C[C@H]1C(C)(C)[C@@H](O)[C@@H]2CC3=C4C=C(OC)O[C@@H](c5ccoc5)[C@]4(C)CCC3[C@@]1(C)C2=O (stereo not given in full)    0.981
CN1CCN(CC(=O)N2c3ccccc3C(=O)Nc3cccnc32)CC1    1.01
CCC1(CC)C(=O)C=CNC1=O    1.02
CC1=NN(c2ccccc2)C(=O)C1    0.957
COc1ccc2c(c1OC)OC[C@@H](c1ccc(OC)c(OC)c1OC)C2    0.998
O=c1[nH]cnc2c1ncn2C1O[C@H](CO)[C@@H](O)[C@H]1O (stereo not given in full)    1.03

Req: Data request, read-out normalized growth, for CC1=CC2C(C(C)C)CCC(C)(O)C2CC1 (stereo not given)
Resp: 0.952

Req: What measured normalized growth goes with CN(C)CCc1c[nH]c2ccc(CS(=O)(=O)N3CCCC3)cc12 ?
Resp: 0.986

Req: Please look up its normalized growth: CN1CCN(CCCN2c3ccccc3Sc3ccc(C(F)(F)F)cc32)CC1
Resp: 0.968

Req: Find the recorded normalized growth belonging to O=C(O)[C@H](O)[C@@](O)(Cc1ccc(O)cc1)C(=O)O and report it.
Resp: 1.01

Req: Would you mind telling me what normalized growth value was observed for CCOc1ccc(C(=O)c2ccc(O)c(O)c2O)cc1 ?
Resp: 0.981

Req: Given the entry COc1cc2cc3c4cc(OC)c(OC)cc4cc[n+]3c(C)c2cc1OC , report its measured normalized growth.
Resp: 1

Req: Please report the recorded normalized growth for CC(=O)OCC(=O)[C@@]12OC3(CCCC3)O[C@@H]1CC1C3CCC4=CC(=O)C=C[C@]4(C)[C@@]3(F)[C@@H](O)C[C@@]12C (stereo not given in full) .
Resp: 0.994

Req: Reported normalized growth for O=C(O)c1cc(=O)c2cccc(O)c2[nH]1 : what is it?
Resp: 0.967

Req: Quick check: normalized growth of CCNc1nc(Cl)nc(NCC)n1 ?
Resp: 1.01

Req: Param item = NCC1OC(OC2C(CO)OC(OC3C(O)C(N)CC(N)C3OC3OC(CO)C(O)CC3N)C2O)C(N)C(O)C1OC1OC(CO)C(O)C(O)C1O (stereo not given) ; retrieve measured normalized growth.
Resp: 1

Req: // lookup normalized growth for COc1cc2c(cc1OC)[C@@]13CCN4CC5=CCOC6CC(=O)N2C1[C@H]6[C@H]5C[C@H]43 (stereo not given in full)
Resp: 1

Req: Please look up its normalized growth: C=C(C)[C@@H]1CC[C@]2(CO)CC[C@]3(C)[C@H](CCC4[C@@]5(C)CC[C@H](O)C(C)(C)C5CC[C@]43C)C12 (stereo not given in full)
Resp: 0.978

Req: I'd like to know its normalized growth. The compound in question is COc1cccc(O)c1O
Resp: 0.996

Req: Query (compound): CO[C@@]1(NC(=O)Cc2cccs2)C(=O)N2C(C(=O)O)=C(COC(N)=O)CS[C@@H]21 ; field requested: normalized growth
Resp: 1.01

Req: Returns the measured normalized growth for the input compound. Input: CN1CCN(CCC=C2c3ccccc3Sc3ccc(S(=O)(=O)N(C)C)cc32)CC1
Resp: 0.992

Reference for the values: PubChem BioAssay AID1159580
